Data provenance: patent US20240174690A1

# ASSAY METHOD TEXT: Metabolic (microsomal) stability assay, human liver microsomes (HLM)
# Type: in vitro ADME
# REPORTED CONDITIONS: predicted clearance as percent of liver blood flow, 1 μM
MEASUREMENT TYPE: HLM QH (%)

>>> experimental_value("C[C@H](Oc1cc(N2CCN(C)C3(CC3)C2)nc(-c2noc3c2CCC[C@@]32CCCc3sc(N)c(C#N)c32)n1)[C@@H]1CCCN1C")
32

A. COC(=O)c1ccc(-c2cc(O[C@@H](C)[C@@H]3CCCN3C)nc(-c3noc4c3CCC[C@@]43CCCc4sc(N)c(C#N)c43)n2)o1
B. C[C@H](Oc1cc(N2CCN(C)C3(COC3)C2)nc(-c2noc3c2CCC[C@@]32CCCc3sc(N)c(C#N)c32)n1)[C@@H]1C[C@@H](F)CN1C
Ask: Which has the higher HLM QH, A or B ? Let me know the label of the one you choose.
Reply: B
(B: 52%, A: 34%)
